# Assay Summary: protein stability index of a GFP-peptide fusion (yeast GPS) (PSI 1-4); higher = more stable; sorted into four equal gates, so the index is relative within each strain
# Measurement Setup: doa10∆
# class assignment by measured protein stability index: lo (below 2), med (2 to below 3), hi (3 or more)

# count of solved cases: 3
PSVGVKTMKTFVIHIQE [RPB5]    med
KERKLRENIAMLKRFFP [SMC1]    med
KGNLLEGKKVMAPYLPG [RPN2]    med

Pick a category. Item: RCTKIIKGNGESDETTT [RPT1]
hi

Pick a category. Item: KRLSAALSKFLTHPKYL [YML103C/NUP188]
med

Pick a category. Item: KGEQIAIFPYQDPIFGS [ECM29]
med

Pick a category. Item: YVSDSDDSSSDNDSLTD [SIR4]
med

Pick a category. Item: DTTVPKRLGPKRANNIR [RPS6A]
hi

Pick a category. Item: KPTSPFIDSICKLFDKI [SRB8]
lo

Reference source for all entries: the supplement of paper PMC9732359
